Known remaining at 0.5 h of a selection of compounds
assay: Metabolic stability in Sprague-Dawley rat plasma assessed as compound remaining after 30 mins by LC-MS/MS analysis; type: ADME, cell-free; details: read-out: Stability

compound	unit_abbreviation	remaining at 0.5 h
Cc1c(CC(=O)NC(CO[N+](=O)[O-])C(=O)O)cc(-c2ccc(S(C)(=O)=O)cc2)n1-c1cccc(F)c1 (racemic)	%	71.4
Cc1c(CC(=O)NCCO[N+](=O)[O-])cc(-c2ccc(S(C)(=O)=O)cc2)n1-c1ccc(F)cc1	%	100
Cc1c(CC(=O)OCCO[N+](=O)[O-])cc(-c2ccc(S(C)(=O)=O)cc2)n1-c1cccc(F)c1	%	0
Cc1c(C(N)C(=O)OCCO[N+](=O)[O-])cc(-c2ccc(S(C)(=O)=O)cc2)n1-c1ccc(F)cc1 (centres undefined)	%	0
